# Assay Details: Plasma and brain concentrations after dosing
# Assay type: in vivo, mouse
# Run Conditions: mouse, brain/plasma; NS-6740 1 mg/kg sc; mice; read-out: Brain/Plasma Ratio
Measurement Name: Kp
# print the numeric value only

// Kp lookup, key: O=C(c1ccc(-c2cccc(C(F)(F)F)c2)o1)N1CCN2CCC1CC2 [NS-6740]
8.65

* * *

# Assay Details: Plasma and brain concentrations after dosing
# Type: in vivo, mouse
# Run Conditions: mouse, brain, subcutaneous, 3 mg/kg, Mouse NOR (1-10 mg/kg study); 3 mg/kg sc; 30 min; read-out: Brain Mean ± SD
Measurement Name: concentration at 30 min

// concentration at 30 min lookup, key: c1cn(-c2cc(NC3=NC[C@@]4(CN5CCC4CC5)O3)ncn2)cn1 [BMS-933043]
297 nM

* * *

# Tested Target: rat α3β4 nAChR (Rattus norvegicus, UniProt P04757+P12392)
# Construct: expressed in transfected cells; host or cells: HEK293 (made by Bristol-Myers Squibb)
# Sequence (P04757 26-499): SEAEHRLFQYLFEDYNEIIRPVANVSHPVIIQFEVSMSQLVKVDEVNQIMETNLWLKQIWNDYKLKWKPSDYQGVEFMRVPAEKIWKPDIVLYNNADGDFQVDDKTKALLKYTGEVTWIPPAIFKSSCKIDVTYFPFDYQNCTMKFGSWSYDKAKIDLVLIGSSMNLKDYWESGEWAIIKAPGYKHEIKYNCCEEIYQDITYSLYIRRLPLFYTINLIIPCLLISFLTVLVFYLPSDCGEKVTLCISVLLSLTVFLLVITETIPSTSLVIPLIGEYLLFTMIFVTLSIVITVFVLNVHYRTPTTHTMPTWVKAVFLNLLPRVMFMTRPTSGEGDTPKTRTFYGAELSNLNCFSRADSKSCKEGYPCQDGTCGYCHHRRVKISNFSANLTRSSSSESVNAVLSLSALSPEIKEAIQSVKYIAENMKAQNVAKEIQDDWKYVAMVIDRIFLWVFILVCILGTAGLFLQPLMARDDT
# Sequence (P12392 21-495): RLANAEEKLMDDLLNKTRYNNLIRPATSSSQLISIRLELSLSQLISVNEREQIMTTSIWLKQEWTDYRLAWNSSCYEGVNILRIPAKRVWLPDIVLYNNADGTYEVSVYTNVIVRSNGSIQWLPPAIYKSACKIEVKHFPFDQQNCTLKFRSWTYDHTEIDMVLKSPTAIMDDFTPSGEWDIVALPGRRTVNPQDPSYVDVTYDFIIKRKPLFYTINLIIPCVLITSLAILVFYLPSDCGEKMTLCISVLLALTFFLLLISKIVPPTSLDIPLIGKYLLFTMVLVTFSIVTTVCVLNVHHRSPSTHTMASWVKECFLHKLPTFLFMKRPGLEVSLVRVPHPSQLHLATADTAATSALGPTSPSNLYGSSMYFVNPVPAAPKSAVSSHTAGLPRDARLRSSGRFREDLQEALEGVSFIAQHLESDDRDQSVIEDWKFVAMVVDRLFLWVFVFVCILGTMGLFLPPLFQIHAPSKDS
# Assay Details: Ca2+ flux (FLIPR) agonist/antagonist assay
# Type: cell-based
pEC50: −log10 of the molar value.
Measurement Name: pEC50

// pEC50 lookup, key: O=C(N[C@@H]1C2CCN(CC2)[C@H]1Cc1cccnc1)c1cc2ccccc2o1 [TC-5619]
< 4.00

* * *

# Assay Details: Plasma and brain concentrations after dosing
# Format: in vivo, rat
# Run Conditions: rat, brain/plasma, sc, 0.3 mg/kg, Rat MMN; 0.30 mg/kg sc; 30 min
Measurement Name: Kp at 30 min
# print the numeric value only

// Kp at 30 min lookup, key: `c1cn(-c2cc(NC3=NC[C@@]4(CN5CCC4CC5)O3)ncn2)cn1`
0.17

* * *

# Tested Target: HEK293/Human α7 nAChR (Homo sapiens)
# Sequence (P36544 23-502): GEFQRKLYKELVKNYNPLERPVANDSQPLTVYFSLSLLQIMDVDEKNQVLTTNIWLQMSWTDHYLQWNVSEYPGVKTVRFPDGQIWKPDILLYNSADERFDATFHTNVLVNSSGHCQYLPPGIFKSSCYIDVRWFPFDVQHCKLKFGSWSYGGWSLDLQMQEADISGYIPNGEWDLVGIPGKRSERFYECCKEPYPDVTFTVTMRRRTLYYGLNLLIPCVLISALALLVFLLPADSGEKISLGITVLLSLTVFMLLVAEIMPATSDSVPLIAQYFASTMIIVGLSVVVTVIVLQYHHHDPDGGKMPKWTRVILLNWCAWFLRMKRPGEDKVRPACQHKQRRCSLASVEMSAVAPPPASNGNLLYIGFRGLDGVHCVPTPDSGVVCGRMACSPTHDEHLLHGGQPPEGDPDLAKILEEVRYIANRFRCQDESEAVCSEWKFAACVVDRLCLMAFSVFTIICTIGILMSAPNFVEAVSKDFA
# Assay Details: [3H]-A-585539 filtration binding
# Design: expressed in transfected cells
# Run Conditions: read-out: HEK293/Human α7 nAChR Mean ± SD Ki
Measurement Name: Ki (nM)
Please state the figure in nM; there is no need to write the unit.

// Ki lookup, key: `c1cn(-c2cc(NC3=NC[C@@]4(CN5CCC4CC5)O3)ncn2)cn1`
8.1

* * *

# Assay Details: Plasma and brain concentrations after dosing
# Assay type: in vivo, rat
# Run Conditions: rat, plasma, subcutaneous, 10 mg/kg, sc; N40 gating; read-out: average plasma concentration at dose with loss of efficacy
Measurement Name: concentration at 30 min (µM)
Please state the figure in µM; there is no need to write the unit.

// concentration at 30 min lookup, key: `c1cn(-c2cc(NC3=NC[C@@]4(CN5CCC4CC5)O3)ncn2)cn1`
3.31

* * *

# Assay Details: Plasma and brain concentrations after dosing
# Type: in vivo, rat
# Run Conditions: rat, brain/plasma, sc, 3 mg/kg, Rat N40 Gating; 3 mg/kg sc; 30 min
Measurement Name: Kp at 30 min
# print the numeric value only

// Kp at 30 min lookup, key: `c1cn(-c2cc(NC3=NC[C@@]4(CN5CCC4CC5)O3)ncn2)cn1`
0.27

* * *

# Assay Details: Plasma and brain concentrations after dosing
# Format: in vivo, mouse
# Run Conditions: mouse, brain, subcutaneous, 0.3 mg/kg, Mouse NOR (0.03-1 mg/kg study); 0.30 mg/kg sc; 30 min; read-out: Brain Mean ± SD
Measurement Name: concentration at 30 min (nM)
Please state the figure in nM; there is no need to write the unit.

// concentration at 30 min lookup, key: `c1cn(-c2cc(NC3=NC[C@@]4(CN5CCC4CC5)O3)ncn2)cn1`
24
